- target-system: complex of HEL peptide and MHC class II molecule (I-A^k) on 293 T cells (Mus musculus, UniProt P01910+P06343)
- Construct: α-chain of mouse MHC class II molecule (I-A^k); β-chain of mouse MHC class II molecule (I-A^k); expressed in transfected cells; host or cells: 293T cells (pME18S vectors, co-transfected with pMX-GFP)
- Sequence (P01910 24-256): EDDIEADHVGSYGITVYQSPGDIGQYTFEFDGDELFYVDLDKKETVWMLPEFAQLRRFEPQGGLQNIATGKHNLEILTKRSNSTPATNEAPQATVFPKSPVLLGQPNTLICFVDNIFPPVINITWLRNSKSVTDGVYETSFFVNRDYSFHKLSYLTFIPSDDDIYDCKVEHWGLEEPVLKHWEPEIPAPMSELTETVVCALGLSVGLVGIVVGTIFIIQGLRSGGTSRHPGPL
- Sequence (P06343 28-263): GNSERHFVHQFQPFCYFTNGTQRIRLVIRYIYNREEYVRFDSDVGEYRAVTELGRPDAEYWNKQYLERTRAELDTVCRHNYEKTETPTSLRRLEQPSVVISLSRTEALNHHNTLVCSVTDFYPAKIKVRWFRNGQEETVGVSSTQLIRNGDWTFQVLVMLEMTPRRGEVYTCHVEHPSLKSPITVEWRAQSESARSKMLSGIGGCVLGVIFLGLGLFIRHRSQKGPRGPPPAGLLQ
- assay-text: Flow cytometry of serum IgG from HEL protein-immunized mice binding to 293 T cells expressing I-A^k pulsed with HEL peptides
- experimental-conditions: peptide non-added groups; serum of HEL protein-immunized mice diluted 100-fold; I-A^k 293 T cells pulsed with 20 μmol/l peptide
readout-kind: serum IgG binding to 293 T cells pulsed with the HEL peptide

The examples below pair each entry with its known result.
AKFESNFNTQATNRNTDGSTDYGILQINSR (Gallus gallus domesticus) [HEL peptide 32-61] ... observed
DGSTDYGILQINSRWWCNDGRTPGSRNLCN (Gallus gallus domesticus) [HEL peptide 48-77] ... observed
DGSTDYGILQINSR (Gallus gallus domesticus) [HEL peptide 48-61, reference compound] ... not observed
QATNRNTDGSTDYGILQINSRWWCNDGRTP (Gallus gallus domesticus) [HEL peptide 41-70] ... observed

Turning to the following sequence.
Prompt: Supply recorded serum IgG binding to 293 T cells pulsed with the HEL peptide for KVFGRCELAAAMKRHGLDNYRGYSLGNWVC (Gallus gallus domesticus) [HEL peptide 1-30, reference compound] here.
Response: not observed
